Metric: pIC50
Reminder that pIC50 means the negative base-10 logarithm of the concentration expressed in mol/L.

## Input Write down the reported pIC50 of O=C(NCC1CCN(Cc2ccccc2F)CC1)c1ccc2c(c1)Nc1ccccc1S2 [Compound 11d] , test system: hBChE (Homo sapiens, UniProt P06276).
Sequence (P06276 29-602): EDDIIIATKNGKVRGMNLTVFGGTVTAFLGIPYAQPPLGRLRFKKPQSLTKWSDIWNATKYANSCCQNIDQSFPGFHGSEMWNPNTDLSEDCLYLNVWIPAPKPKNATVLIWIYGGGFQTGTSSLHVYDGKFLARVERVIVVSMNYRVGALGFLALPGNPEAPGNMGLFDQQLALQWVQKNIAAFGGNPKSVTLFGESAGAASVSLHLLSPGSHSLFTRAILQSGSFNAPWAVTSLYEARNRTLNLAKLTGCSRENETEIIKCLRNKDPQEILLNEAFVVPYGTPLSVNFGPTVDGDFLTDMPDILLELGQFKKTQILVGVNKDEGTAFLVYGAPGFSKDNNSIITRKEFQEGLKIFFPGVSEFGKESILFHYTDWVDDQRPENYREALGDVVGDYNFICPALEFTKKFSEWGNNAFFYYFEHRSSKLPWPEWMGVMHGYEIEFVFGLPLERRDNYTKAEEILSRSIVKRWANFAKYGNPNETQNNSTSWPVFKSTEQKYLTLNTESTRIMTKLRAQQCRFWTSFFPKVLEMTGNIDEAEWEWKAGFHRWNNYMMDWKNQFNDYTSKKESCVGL
## Output 5.92

## Input Write down the reported pIC50 of O=C(NCCN1CCN(Cc2ccccc2)CC1)c1ccc2c(c1)Nc1ccccc1S2 [Compound 12a] , test system: hBChE (Homo sapiens, UniProt P06276).
## Output 5.69

## Input Write down the reported pIC50 of Cc1ccccc1CN1CCN(CCNC(=O)c2ccc3c(c2)Nc2ccccc2S3)CC1 [Compound 12c] , test system: hBChE (Homo sapiens, UniProt P06276).
## Output 5.60

## Input Write down the reported pIC50 of O=C(NCCN1CCN(Cc2ccccc2F)CC1)c1ccc2c(c1)Nc1ccccc1S2 [Compound 12d] , test system: hBChE (Homo sapiens, UniProt P06276).
## Output 5.36

## Input Write down the reported pIC50 of O=C(NCC1CCN(Cc2ccccc2Cl)CC1)c1ccc2c(c1)Nc1ccccc1S2 [Compound 11b] , test system: hBChE (Homo sapiens, UniProt P06276).
## Output 5.70

## Input Write down the reported pIC50 of Cc1ccccc1CN1CCC(CNC(=O)c2ccc3c(c2)Nc2ccccc2S3)CC1 [Compound 11c] , test system: hBChE (Homo sapiens, UniProt P06276).
## Output 5.83

## Input Write down the reported pIC50 of O=C(NCC1CCN(Cc2ccccc2)CC1)c1ccc2c(c1)Nc1ccccc1S2 [Compound 11a] , test system: hBChE (Homo sapiens, UniProt P06276).
## Output 5.67

----------
experiment: MTT cell viability assay, HepG2; format: cell-based; details: human, HepG2 cells; HepG2, 24 h exposure; read-out: MTT cytotoxicity IC50 ± SEM HepG2 24 h
Please go through the items and note down their IC50 at 24 h.

## Input For "CC(=O)N1c2ccccc2Sc2ccc(C(=O)NCCN3CCN(Cc4ccccc4Cl)CC3)cc21" , what is its reported IC50 at 24 h?
## Output > 100 µM

## Input For Cc1ccccc1CN1CCC(CNC(=O)c2ccc3c(c2)Nc2ccccc2S3)CC1 [Compound 11c] , what is its reported IC50 at 24 h?
## Output 35.2 µM

## Input For COc1cccc(CN2CCC(CNC(=O)c3ccc4c(c3)Nc3ccccc3S4)CC2)c1 [Compound 11e] , what is its reported IC50 at 24 h?
## Output 14.9 µM

## Input For O=C(NCC1CCN(Cc2ccccc2)CC1)c1ccc2c(c1)Nc1ccccc1S2 [Compound 11a] , what is its reported IC50 at 24 h?
## Output 62.7 µM

## Input For O=C(NCCN1CCN(Cc2ccccc2F)CC1)c1ccc2c(c1)Nc1ccccc1S2 [Compound 12d] , what is its reported IC50 at 24 h?
## Output 42.9 µM

## Input For O=C(NCCN1CCN(Cc2ccccc2Cl)CC1)c1ccc2c(c1)Nc1ccccc1S2 [Compound 12b] , what is its reported IC50 at 24 h?
## Output > 100 µM

## Input For Cc1ccccc1CN1CCN(CCNC(=O)c2ccc3c(c2)Nc2ccccc2S3)CC1 [Compound 12c] , what is its reported IC50 at 24 h?
## Output > 100 µM

## Input For O=C(NCC1CCN(Cc2ccccc2F)CC1)c1ccc2c(c1)Nc1ccccc1S2 [Compound 11d] , what is its reported IC50 at 24 h?
## Output 41 µM

## Input For O=C(NCCN1CCN(Cc2ccccc2)CC1)c1ccc2c(c1)Nc1ccccc1S2 [Compound 12a] , what is its reported IC50 at 24 h?
## Output 28.8 µM

## Input For O=C(NCC1CCN(Cc2ccccc2Cl)CC1)c1ccc2c(c1)Nc1ccccc1S2 [Compound 11b] , what is its reported IC50 at 24 h?
## Output 27.7 µM
